These measurements were taken from patent US11753407B2.

Examples of compounds with documented melting point follow.

So what's the measured melting point for this one? Cc1cn2cc(-c3cc(=O)n4cc(N5CCN(C6CCC6)[C@@H](C)C5)ccc4n3)cc(F)c2n1 [Compound 543]
264 to 267 °C

So what's the measured melting point for this one? CCc1nc(C)cn2cc(-c3cc(=O)n4cc(N5C[C@@H](C)N[C@@H](C)C5)ccc4n3)cc12 [Compound 748]
238 to 241 °C

So what's the measured melting point for this one? COc1ccc(-c2cc(=O)n3cc(N4CCN[C@H](C)C4)ccc3n2)cc1F [Compound 86]
175 to 178 °C

So what's the measured melting point for this one? Cc1cn2ccc(-c3cc(=O)n4cc(N5CCNCC5)ccc4n3)cc2n1 [Compound 555]
272 to 277 °C

So what's the measured melting point for this one? COc1ccc(-c2ccc3nc(N4CC[C@H](N(C)C)C4)cc(=O)n3c2)cc1F [Compound 278]
167 to 169 °C
